Known IC50 of a selection of compounds
tested on: A549 cells; assay: Inhibition of cancer cell growth, MTT assay; format: cell-based; settings: Homo sapiens; A549 cells, 72 h compound exposure, MTT; read-out: IC50

// worked examples, IC50 included
{"compound": "CN(CCO)C1CC[C@@]2(C)[C@H](CC[C@@H]3[C@@H]2CC[C@]2(C)[C@@H](c4ccc(=O)oc4)CC[C@]32O)C1 (stereo partly drawn)", "IC50": "100 to 1000 nM"}
{"compound": "C[C@]12CCC(N3CCOCC3)C[C@H]1CC[C@@H]1[C@@H]2CC[C@]2(C)[C@@H](c3ccc(=O)oc3)CC[C@]12O (stereo partly drawn)", "IC50": "100 to 1000 nM"}

// below: IC50 requested for another compound
Per the record, C[C@]12CC[C@@H](NC(=O)N3CCNCC3)C[C@H]1CC[C@@H]1[C@@H]2CC[C@]2(C)[C@@H](c3ccc(=O)oc3)CC[C@]12O has IC50 of < 20 nM

---

Each entry below carries its recorded IC50.
test system: A549 cells; experiment: Inhibition of cancer cell growth, MTT assay; type: cell-based; conditions: Homo sapiens; A549 cells, 72 h compound exposure, MTT; read-out: IC50

Use the examples below as a reference point.
{"molecule": "C[C@]12CC[C@@H](NC(=O)N3CCOCC3)C[C@H]1CC[C@@H]1[C@@H]2CC[C@]2(C)[C@@H](c3ccc(=O)oc3)CC[C@]12O [Compound C01]", "IC50": "100 to 1000 nM"}
{"molecule": "C[C@]12CC[C@@H](NC(=O)NCCN)C[C@H]1CC[C@@H]1[C@@H]2CC[C@]2(C)[C@@H](c3ccc(=O)oc3)CC[C@]12O [Compound C08]", "IC50": "100 to 1000 nM"}
{"molecule": "C[C@]12CCC(NC(=O)N3CCNCC3)C[C@H]1CC[C@@H]1[C@@H]2CC[C@]2(C)[C@@H](C3=CC(=O)OC3)CC[C@]12O (stereo partly shown) [Compound C24]", "IC50": "20 to 100 nM"}

The record that follows has no IC50 shown yet.
Entry C[C@]12CCC(N3CCCC3)C[C@H]1CC[C@@H]1[C@@H]2CC[C@]2(C)[C@@H](c3ccc(=O)oc3)CC[C@]12O (stereo partly shown) [Compound C20] ; IC50 = < 20 nM

---

assay: Equilibrium solubility in aqueous buffer (HPLC UV); type: physicochemical; conditions: aqueous buffer, thermodynamic from solid; equilibrium solubility, NaOAc/AcOH buffer (100 mM, pH 5.0), rt, 24 h; read-out: Solubility
measured.endpoint: solubility at 24 h

// known answers, use as guide
{"compound": "C[C@]12CC[C@H](NC(=O)CN)C[C@H]1CC[C@@H]1[C@@H]2CC[C@]2(C)[C@@H](c3ccc(=O)oc3)CC[C@]12O [Compound C12]", "solubility at 24 h": "> 1000 µg/mL"}
{"compound": "C[C@]12CCC(NCCN3CCCC3)C[C@H]1CC[C@@H]1[C@@H]2CC[C@]2(C)[C@@H](c3ccc(=O)oc3)CC[C@]12O (some centres unmarked) [Compound C27]", "solubility at 24 h": "> 1000 µg/mL"}
{"compound": "CN(CCO)C1CC[C@@]2(C)[C@H](CC[C@@H]3[C@@H]2CC[C@]2(C)[C@@H](c4ccc(=O)oc4)CC[C@]32O)C1 (some centres unmarked) [Compound C32]", "solubility at 24 h": "< 100 µg/mL"}

Record summary for CC(C)[C@@H](N)C(=O)N(C)C1CC[C@@]2(C)[C@H](CC[C@@H]3[C@@H]2CC[C@]2(C)[C@@H](c4ccc(=O)oc4)CC[C@]32O)C1 (some centres unmarked) [Compound C22] : reported solubility at 24 h = > 1000 µg/mL

The compound listed as C[C@]12CC[C@H](NC(=O)NCCN)C[C@H]1CC[C@@H]1[C@@H]2CC[C@]2(C)[C@@H](c3ccc(=O)oc3)CC[C@]12O [Compound C10] has a reported solubility at 24 h of > 1000 µg/mL
